Cited source: PubChem BioAssay (NCI)

Tested on: EKVX NSCLC
Experiment: NCI-60 one-dose screen, 48 h (100 = growth as untreated, 0 = no growth, -100 = all killed)
Details: 10 µM unless noted
About 83,000 compounds went through this panel and 20% of them were active in at least one assay; those are over-represented in the sample as a whole. Active and inactive are the calls of the source. The calls were made as follows: active = growth percent below 10; inactive = the rest.
Below is a list of entries, each paired with its recorded growth value.

Guide cases for growth, answers given:
[
  {
    "structure": "CSc1ccc2c3c(n(CCCn4ccnc4)c(=O)c2c1)-c1ccccc1C3=O",
    "result": "84.4% (inactive)"
  },
  {
    "structure": "N=C(N)c1ccc(OCCSCCOc2ccc(C(=N)N)cc2)cc1",
    "result": "56.6% (inactive)"
  }
]

QUERY: Give the measured growth of `Fc1cccc(-c2nc(-c3c[nH]c4ncccc34)cs2)c1` .
RESULT: 28.6% [100 µM] (inactive)
